# Test system: C33A
# experimentDescription: Primary qHTS to identify gynecologic anti-cancer compounds using libraries of approved drugs and bioactive compounds (AID 1345084); note: % is set by controls: 0 for no effect and ±100 for the full control effect; nearly all actives have a fitted effect of over 55% in size
# statedConditions: Gynecologic cancer cell panel viability, ATPlite luminescence, 48 h; series mostly up to 57.5 µM
Results filed as inconclusive are left out. Activity calls are given as the source filed them. Calls come from the whole dose curve; as a rule, active = well fitted cell-killing curve with a large enough effect; inconclusive = small, poorly fitted or top-dose-only effect, or effect the other way; inactive = flat fitted curve, though single readings scatter.
measuredQuantity: activity change, negative = cytotoxicity

compound: C=C[C@H]1[C@H](O[C@@H]2O[C@H](CO)[C@@H](O)[C@H](O)[C@H]2O)OC=C(C(=O)OC)[C@H]1C/C=C(/C=O)[C@@H]1C(C(=O)OC)=CO[C@@H](O[C@@H]2O[C@H](CO)[C@@H](O)[C@H](O)[C@H]2O)[C@@H]1C=C
measuredQuantity: activity change, negative = cytotoxicity
reportedResult: inactive
//
compound: Cc1cc(Nc2nc(NC(C)c3ncc(F)cn3)ncc2Cl)n[nH]1 (stereo not drawn)
measuredQuantity: activity change, negative = cytotoxicity
reportedResult: inactive
//
compound: C[C@@H]1O[C@@H](O[C@H]2[C@H](OC(=O)[C@]34CCC(C)(C)C[C@H]3C3=CCC5[C@@]6(C)C[C@H](O)[C@H](O[C@@H]7O[C@H](CO)[C@@H](O)[C@H](O)[C@H]7O)[C@@](C)(CO)C6[C@H](O)C[C@@]5(C)[C@]3(C)C[C@H]4O)OC[C@H](O)[C@@H]2O)[C@H](O)[C@H](O)[C@H]1O[C@@H]1OC[C@@H](O)[C@H](O[C@H]2OC[C@](O)(CO)[C@H]2O)[C@H]1O (stereo partly drawn)
measuredQuantity: activity change, negative = cytotoxicity
reportedResult: 6.39% [at 6.55 µM] (inactive)

Each recorded value in this set is attributed to PubChem BioAssay (NCATS).
